Target: T1, Homo sapiens factor Bb protein (human, UniProt P00751 260-764)
T1 construct: Bought from CompTech (A155); also called complement factor Bb; human factor Bb
T1 sequence (P00751 260-764 limits assumed): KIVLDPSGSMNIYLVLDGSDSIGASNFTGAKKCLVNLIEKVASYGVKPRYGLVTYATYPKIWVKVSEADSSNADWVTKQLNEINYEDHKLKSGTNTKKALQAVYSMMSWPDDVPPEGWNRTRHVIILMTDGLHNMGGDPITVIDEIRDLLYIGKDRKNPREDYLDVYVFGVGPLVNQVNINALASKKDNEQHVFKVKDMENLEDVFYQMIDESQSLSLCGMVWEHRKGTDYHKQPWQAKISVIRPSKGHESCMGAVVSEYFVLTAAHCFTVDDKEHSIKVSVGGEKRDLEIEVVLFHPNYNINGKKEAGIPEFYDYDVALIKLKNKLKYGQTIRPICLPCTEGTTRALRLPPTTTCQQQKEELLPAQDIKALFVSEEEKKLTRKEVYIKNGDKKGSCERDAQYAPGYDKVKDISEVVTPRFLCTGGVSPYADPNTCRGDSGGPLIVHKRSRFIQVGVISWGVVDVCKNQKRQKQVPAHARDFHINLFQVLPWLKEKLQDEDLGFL
Experiment: SPR single cycle kinetics, IgG on Protein A chip, factor Bb analyte
READOUT NAME: koff (s⁻¹)
Numbers only, in s⁻¹.

# annotated cases, reported koff shown
BINDER	koff / s⁻¹
VH7/Vκ0 (antibody, V domains shown, Control antibody of the redesign round; cloned into the appropriate expression vector (IgG4v1 and kappa were used in the first round), HEK EBNA supernatant) VH: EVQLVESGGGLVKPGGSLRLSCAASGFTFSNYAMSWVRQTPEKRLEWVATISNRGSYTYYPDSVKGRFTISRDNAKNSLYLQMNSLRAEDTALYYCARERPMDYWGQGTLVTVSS VL: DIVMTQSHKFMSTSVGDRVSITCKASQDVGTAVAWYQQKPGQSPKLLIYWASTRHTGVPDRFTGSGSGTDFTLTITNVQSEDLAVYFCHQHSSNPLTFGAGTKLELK	0.00207
VH5/Vκ0 (antibody, V domains shown, Control antibody of the redesign round; cloned into the appropriate expression vector (IgG4v1 and kappa were used in the first round), HEK EBNA supernatant) VH: EVQLVESGGGLVKPGGSLRLSCAASGFTFSNYAMSWVRQTPEKRLEWVATISNRGSYTYYPDSVKGRFTISRDNAKNSLYLQMSSLRSEDTALYYCARERPMDYWGQGTSVTVSS VL: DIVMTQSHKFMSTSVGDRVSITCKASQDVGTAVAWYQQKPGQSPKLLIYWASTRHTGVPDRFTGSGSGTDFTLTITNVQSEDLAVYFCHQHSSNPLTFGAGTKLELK	0.00145
VH0/Vκ0 (Chimeric) (antibody, V domains shown, also called chimeric antibody) VH: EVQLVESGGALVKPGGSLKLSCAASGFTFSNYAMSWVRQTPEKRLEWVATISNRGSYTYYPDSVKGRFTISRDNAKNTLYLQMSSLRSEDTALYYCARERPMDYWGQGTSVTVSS VL: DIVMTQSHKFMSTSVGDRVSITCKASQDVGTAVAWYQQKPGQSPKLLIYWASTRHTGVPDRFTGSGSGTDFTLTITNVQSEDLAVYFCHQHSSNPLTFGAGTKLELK	0.000949
VH5/Vκ7 (antibody, V domains shown, Redesigned variant; cloned into the appropriate expression vector (IgG4v1 and kappa were used in the first round), HEK EBNA supernatant) VH: EVQLVESGGGLVKPGGSLRLSCAASGFTFSNYAMSWVRQTPEKRLEWVATISNRGSYTYYPDSVKGRFTISRDNAKNSLYLQMSSLRSEDTALYYCARERPMDYWGQGTSVTVSS VL: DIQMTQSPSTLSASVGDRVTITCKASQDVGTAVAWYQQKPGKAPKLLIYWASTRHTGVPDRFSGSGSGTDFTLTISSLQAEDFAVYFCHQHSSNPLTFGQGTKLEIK	0.00166

Give koff for each listed item.
1. VH7/Vκ7 (antibody, V domains shown, Redesigned variant; cloned into the appropriate expression vector (IgG4v1 and kappa were used in the first round); also called VH7/VκK7) VH: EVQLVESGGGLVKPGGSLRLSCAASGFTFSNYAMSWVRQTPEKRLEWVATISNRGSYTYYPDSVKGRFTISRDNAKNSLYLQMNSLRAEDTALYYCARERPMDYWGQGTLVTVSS VL: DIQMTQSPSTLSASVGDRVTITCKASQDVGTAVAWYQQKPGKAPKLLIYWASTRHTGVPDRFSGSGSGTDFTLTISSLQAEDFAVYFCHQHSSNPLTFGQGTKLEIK
2. VH7/Vκ6 (antibody, V domains shown, Redesigned variant; cloned into the appropriate expression vector (IgG4v1 and kappa were used in the first round), HEK EBNA supernatant) VH: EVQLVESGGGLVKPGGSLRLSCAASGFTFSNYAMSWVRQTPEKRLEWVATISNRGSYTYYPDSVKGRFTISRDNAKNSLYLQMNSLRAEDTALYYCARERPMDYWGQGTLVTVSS VL: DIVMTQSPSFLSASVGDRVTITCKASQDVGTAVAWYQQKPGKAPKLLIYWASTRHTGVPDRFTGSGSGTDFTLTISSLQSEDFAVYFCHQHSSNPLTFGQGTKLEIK
3. VH0/Vκ6 (antibody, V domains shown, Control antibody of the redesign round; cloned into the appropriate expression vector (IgG4v1 and kappa were used in the first round), HEK EBNA supernatant) VH: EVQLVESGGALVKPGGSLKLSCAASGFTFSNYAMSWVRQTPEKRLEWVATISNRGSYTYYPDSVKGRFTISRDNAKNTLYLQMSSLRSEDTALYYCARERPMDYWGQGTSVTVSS VL: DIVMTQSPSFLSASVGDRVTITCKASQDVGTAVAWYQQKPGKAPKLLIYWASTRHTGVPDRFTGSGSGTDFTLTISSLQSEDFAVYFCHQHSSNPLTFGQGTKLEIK
4. VH4/Vκ7 (antibody, V domains shown, Redesigned variant; cloned into the appropriate expression vector (IgG4v1 and kappa were used in the first round)) VH: EVQLVESGGGLVKPGGSLRLSCAASGFTFSNYAMSWVRQAPGKRLEWVATISNRGSYTYYPDSVKGRFTISRDNAKNSLYLQMSSLRSEDTALYYCARERPMDYWGQGTSVTVSS VL: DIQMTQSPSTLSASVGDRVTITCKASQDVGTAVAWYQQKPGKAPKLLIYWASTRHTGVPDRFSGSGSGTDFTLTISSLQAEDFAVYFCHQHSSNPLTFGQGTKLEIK
5. VH6/Vκ0 (antibody, V domains shown, Control antibody of the redesign round; cloned into the appropriate expression vector (IgG4v1 and kappa were used in the first round), HEK EBNA supernatant) VH: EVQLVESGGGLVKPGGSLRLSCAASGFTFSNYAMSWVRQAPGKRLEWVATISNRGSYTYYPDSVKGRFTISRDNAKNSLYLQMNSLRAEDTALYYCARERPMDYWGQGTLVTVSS VL: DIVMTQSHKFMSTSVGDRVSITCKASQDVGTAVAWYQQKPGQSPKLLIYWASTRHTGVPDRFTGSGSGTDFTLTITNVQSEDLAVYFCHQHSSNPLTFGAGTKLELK
6. VH5/Vκ6 (antibody, V domains shown, Redesigned variant; cloned into the appropriate expression vector (IgG4v1 and kappa were used in the first round), HEK EBNA supernatant) VH: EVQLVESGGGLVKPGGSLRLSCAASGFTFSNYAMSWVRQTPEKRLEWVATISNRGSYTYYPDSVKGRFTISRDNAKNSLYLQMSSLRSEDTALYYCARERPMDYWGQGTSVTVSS VL: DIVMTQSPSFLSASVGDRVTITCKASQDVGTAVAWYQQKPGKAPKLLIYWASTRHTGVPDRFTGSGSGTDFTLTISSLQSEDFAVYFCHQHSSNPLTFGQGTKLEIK

[0.0117, 0.00303, 0.00126, 0.000903, 0.00197, 0.0173]
